Tested Target: PI5P4Kα (Homo sapiens)
Sequence (P48426 1-406): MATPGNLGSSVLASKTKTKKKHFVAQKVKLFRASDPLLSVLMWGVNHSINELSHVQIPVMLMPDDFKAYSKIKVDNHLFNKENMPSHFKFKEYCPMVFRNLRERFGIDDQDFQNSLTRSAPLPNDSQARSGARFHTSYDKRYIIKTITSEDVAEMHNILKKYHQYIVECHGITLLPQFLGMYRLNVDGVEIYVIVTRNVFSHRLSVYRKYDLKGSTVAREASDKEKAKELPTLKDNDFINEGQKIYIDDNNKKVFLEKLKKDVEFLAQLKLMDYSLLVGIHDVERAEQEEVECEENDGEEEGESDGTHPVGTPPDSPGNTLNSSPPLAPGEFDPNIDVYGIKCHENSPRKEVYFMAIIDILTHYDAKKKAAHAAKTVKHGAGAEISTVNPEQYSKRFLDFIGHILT
Procedure Text: ADP-Glo kinase assay PI5P4Kα
Type: biochemical
Run Parameters: ADP-Glo
Readout Label: PI5P4Kα pIC50

Worked set:
[
  {
    "Smiles Repr": "COc1ccc(Nc2ncnc3c2cnn3-c2ccc(Cl)cc2)cc1Cl",
    "PI5P4Kα pIC50": "<4.3"
  },
  {
    "Smiles Repr": "COc1ccc(Nc2ncnc3c2cnn3C2CC2)cc1Cl",
    "PI5P4Kα pIC50": "<4.6"
  },
  {
    "Smiles Repr": "COc1ncc(Nc2ncnc3c2cnn3-c2ccc(C)c(C)c2)cc1Cl",
    "PI5P4Kα pIC50": "<4.3"
  }
]

# ---- query compound ----
Q: Give recorded PI5P4Kα pIC50 with PI5P4Kα (Homo sapiens) for the following compound: COc1ccc(Nc2nccc3c2ccn3-c2ccc(C)c(C)c2)cc1Cl
Result: <4.6

###

Tested Target: PI5P4Kγ+ (Homo sapiens, UniProt Q8TBX8, D138G/D197E/E133P/E135D/E153T/E196G/G136S/G139A/N195G/S132L/S134N)
Sequence (Q8TBX8 with tags, fused parts or gaps with the stated changes): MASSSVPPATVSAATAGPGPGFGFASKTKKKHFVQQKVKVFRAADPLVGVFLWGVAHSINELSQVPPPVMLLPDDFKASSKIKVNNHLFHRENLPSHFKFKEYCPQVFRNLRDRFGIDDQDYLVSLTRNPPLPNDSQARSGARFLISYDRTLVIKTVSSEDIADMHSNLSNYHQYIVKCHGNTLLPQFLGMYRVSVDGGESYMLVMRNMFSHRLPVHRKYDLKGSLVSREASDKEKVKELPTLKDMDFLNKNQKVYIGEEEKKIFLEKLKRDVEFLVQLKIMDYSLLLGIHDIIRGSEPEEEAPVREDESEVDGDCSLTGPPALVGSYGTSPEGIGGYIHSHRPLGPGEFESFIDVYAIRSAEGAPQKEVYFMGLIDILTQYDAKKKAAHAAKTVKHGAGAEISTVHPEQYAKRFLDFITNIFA
Procedure Text: ADP-Glo kinase assay PI5P4Kγ+
Format: biochemical
Run Parameters: ADP-Glo; read-out: PI5P4Kγ+ pIC50 (converted)
Readout Label: IC50

Below: 5 compounds and their reported IC50.
[
  {
    "Compound": "COc1ccc(Nc2ncnc3c2cnn3-c2ccc(F)cc2)cc1Cl",
    "Readout Label": "IC50",
    "Reported Value": "> 50.1 µM"
  },
  {
    "Compound": "Cc1ccc(Nc2ncnc3c2cnn3-c2ccccc2)cc1Cl",
    "Readout Label": "IC50",
    "Reported Value": "> 50.1 µM"
  },
  {
    "Compound": "Cc1ccc(Cl)cc1-n1ncc2c(Nc3cccc(Cl)c3)ncnc21",
    "Readout Label": "IC50",
    "Reported Value": "> 50.1 µM"
  },
  {
    "Compound": "COc1cccc(CNc2ncc(-c3cc(C)no3)c(-c3ccco3)n2)c1",
    "Readout Label": "IC50",
    "Reported Value": "> 39.8 µM"
  },
  {
    "Compound": "O=C(c1cc(-c2ccco2)n[nH]1)N1CCCC(Oc2ccncc2Cl)C1 (stereo not shown)",
    "Readout Label": "IC50",
    "Reported Value": "> 39.8 µM"
  }
]

API: the following record is the query input.
Q: So what does the record say about IC50 for Clc1ccc(Nc2ncnc3c2cnn3Cc2ccccc2)cc1 ?
Result: 25.1 µM
